meta.source: patent US20260258115A1

Molecular target: T1, RSV postfusion F (postF), subtype B (respiratory syncytial virus, subtype B)
T1 construct: also called F ΔFP; Postfusion subtype B
T1 sequence (P13843 26-109, chain 1 of 2): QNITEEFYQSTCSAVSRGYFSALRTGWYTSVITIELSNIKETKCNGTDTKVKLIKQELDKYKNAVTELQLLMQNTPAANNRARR
T1 sequence (P13843 147-513, chain 2 of 2): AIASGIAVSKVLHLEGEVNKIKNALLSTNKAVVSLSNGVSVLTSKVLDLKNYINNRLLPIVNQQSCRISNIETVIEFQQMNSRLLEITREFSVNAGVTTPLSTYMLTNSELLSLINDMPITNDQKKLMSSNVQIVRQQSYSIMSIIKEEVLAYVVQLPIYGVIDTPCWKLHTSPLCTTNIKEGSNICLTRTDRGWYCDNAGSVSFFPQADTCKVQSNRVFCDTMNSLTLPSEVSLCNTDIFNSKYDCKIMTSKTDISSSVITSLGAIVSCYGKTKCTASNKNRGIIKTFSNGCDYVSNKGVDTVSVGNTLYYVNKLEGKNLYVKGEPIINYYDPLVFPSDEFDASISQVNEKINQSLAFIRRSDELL
Assay: BLI, IgG
pKd: −log10 of the molar value.

{"Binder": "ADI-21004 (antibody, V domains shown) VH: QVQLQESGGGVVQPGRSLTLSCAASGFTFSSYGMHWVRQAPGKGLDWVAEIWYDGSNKYYVDSVKGRFTISRDNSKNTLYLQMKSLRAEDTAIYYCARDGGYESPFFDKWGQGTLVTVSS VL: EIVMTQSPDSLGVSLGERATINCKSSQSLYTSNHENSLAWYQQKPGQPPRLLIYWASTRELGVPDRFSGSGSGTDFTLTISSLQAEDVAVYYCQQYHTTPLTFGPGTKVEIK", "pKd": 9.10}
{"Binder": "ADI-14425 (antibody, V domains shown, also called Ab 91) VH: QVQLQESGPGLVKPSETLSLTCTVSGGSVRSGSYYWSWIRQPPGKALEWIGYIYYSGSTNYNPALESRVTISVDTSKNQFSLMLSSVTAADTAVYYCARSAEGLARLYYFDHWGQGTLVTVSS VL: QSVLIQPASVSGSPGQSITISCTGTSSDVGGYNYVSWYQQHPGKAPKLMIHDVSNRPSGVSNRFSGSKSGNTASLTISGLQAEDEADYYCSTYRSSNTLVVFGGGTKLTVL", "pKd": 8.03}
